test: Cellular viability qHTS for adrenocortical cancer (ACC) cell line NCI-H295R (AID 1963990); conditions: CellTiter-Glo ATP luminescence, 48 h; series mostly up to 46.1 µM; also: nearly all actives have a fitted effect of over 60% in size; also: potency is read from the fitted curve at half-maximal effect
Results filed as inconclusive are left out. Active and inactive are the calls of the source. Calls follow the shape of the dose curve; as a rule, active = well fitted cell-killing curve with a large enough effect; inconclusive = small, poorly fitted or top-dose-only effect; inactive = flat fitted curve, though single readings scatter.
READOUT: Potency

CC(=C(CCOC(=O)C(C)C)SSC(CCOC(=O)C(C)C)=C(C)N(C=O)Cc1cnc(C)nc1N)N(C=O)Cc1cnc(C)nc1N    inactive
OCCOc1ccc(/C(=C(/CCCl)c2ccccc2)c2ccccc2)cc1    25.1 µM (active)
CCCCOC(=O)c1ccc(N)cc1    inactive
COc1ccc2cc(CCC(C)=O)ccc2c1    inactive
CN(C(=O)CCCOc1ccc2[nH]c(=O)ccc2c1)C1CCCCC1    inactive

Now, please, on to the next compound.
[in] Kindly indicate its recorded Potency. Item: CCOC(=O)C1=C(C)NC(C)=C(C(=O)OC)C1c1cccc([N+](=O)[O-])c1 (stereo unspecified)
[out] 16.4 µM (active)

====

Assay: Cellular viability qHTS for adrenocortical cancer (ACC) cell line NCI-H295R (AID 1963990); also: nearly all actives have a fitted effect of over 60% in size
Settings: CellTiter-Glo ATP luminescence, 48 h; series mostly up to 46.1 µM
Source text: PI: Naris Nilubol, MD Surgical Oncology Program, National Cancer Institute (NCI) National Institute of Health (NIH), Bethesda, Maryland Adrenocortical cancer (ACC) is a rare malignancy with poor survival outcomes and few treatment options. Currently, mitotane is the only FDA-approved therapy for ACC. […] Through a quantitative high-throughput drug screen (qHTS), we identified auranofin (AF), a thioredoxin reductase (TXNRD) inhibitor, as a promising candidate drug. […]
Inconclusive results are not listed. Calls of active or inactive are those of the source. Calls follow the shape of the dose curve; as a rule, active = well fitted cell-killing curve with a large enough effect; inconclusive = small, poorly fitted or top-dose-only effect; inactive = flat fitted curve, though single readings scatter.
Allowed answers: 1 for active, -1 for inactive

NC(=O)c1c(OCc2c(F)cc(Br)cc2F)nsc1NC(=O)NCCCCN1CCCC1    1
Cn1cc(/C=C2\C(=O)Nc3cccnc32)c2ccccc21    -1
CCn1c(=O)c2c(nc(/C=C/c3ccc(OC)c(OC)c3)n2C)n(CC)c1=O    -1
CCCCOc1cc(C(=O)NCCN(CC)CC)c2ccccc2n1    1
C[C@@H](c1ccc2nccn2c1)n1nnc2ncc(-c3cnn(C)c3)nc21    -1
CCN(CC)CCCN(c1ccccc1)C1Cc2ccccc2C1    1

[in] In this assay, the call recorded for CS[C@H]1SC[C@@H]2C(=O)N(C)[C@H](C(C)C)C(=O)OC[C@H](NC(=O)c3cnc4ccccc4n3)C(=O)N[C@H](C)C(=O)N(C)[C@H]1C(=O)N(C)[C@H](C(C)C)C(=O)OC[C@H](NC(=O)c1cnc3ccccc3n1)C(=O)N[C@H](C)C(=O)N2C was what?
[out] 1

====

test: Cellular viability qHTS for adrenocortical cancer (ACC) cell line NCI-H295R (AID 1963990); details: CellTiter-Glo ATP luminescence, 48 h; series mostly up to 46.1 µM; also: nearly all actives have a fitted effect of over 60% in size; also: potency is read from the fitted curve at half-maximal effect
Inconclusive results are not listed. The source made the active and inactive calls. Calls come from the whole dose curve; as a rule, active = well fitted cell-killing curve with a large enough effect; inconclusive = small, poorly fitted or top-dose-only effect; inactive = flat fitted curve, though single readings scatter.
READOUT: Potency

Before answering, review these 5 worked examples.
C=CCN(/C=C1\C(=O)O[C@@H](COC)[C@]2(C)C1=C(O)C(=O)C1=C2[C@@H](OC(C)=O)C[C@]2(C)C(=O)CC[C@H]12)CC=C    28.2 µM (active)
c1ccc2occc2c1    inactive
Nc1ccc2c(c1)CN1C(=O)c3ccccc3C1=N2    inactive
O=C(NO)c1cnc(NC2(c3cccc(F)c3)CCCCC2)nc1    3.16 µM (active)
CCC(=O)OCC(=O)C1(OC(=O)CC)C(C)CC2C3CCC4=CC(=O)C=CC4(C)C3(F)C(O)CC21C (stereo not drawn)    4.47 µM (active)

[in] Kindly indicate its recorded Potency. Item: N[C@H](C(=O)O)[C@@H](O)c1ccc(O)c(O)c1
[out] inactive

[in] Kindly indicate its recorded Potency. Item: C/C=C(/C(=C/C)c1ccc(OC(C)=O)cc1)c1ccc(OC(C)=O)cc1
[out] 23.1 µM (active)

[in] Kindly indicate its recorded Potency. Item: CN1C(=O)[C@@H](NC(=O)c2cc(Cc3ccccc3)on2)COc2ccccc21
[out] inactive

[in] Kindly indicate its recorded Potency. Item: CC/C(=C(/c1ccc(O)cc1)c1ccc(OCCNC)cc1)c1ccccc1
[out] inactive

[in] Kindly indicate its recorded Potency. Item: Nc1ncnc2c1c(COc1cccc(Cl)c1)nn2C1CCOCC1
[out] inactive

[in] Kindly indicate its recorded Potency. Item: NC(=O)c1ccc2nc(-c3ccc(C4(N)CCC4)cc3)c(-c3ccccc3)n2n1
[out] 6.31 µM (active)

[in] Kindly indicate its recorded Potency. Item: COC(=O)N(CC(=O)O)Cc1cccc(OCc2nc(-c3ccc(Cl)cc3)oc2C)c1
[out] inactive

[in] Kindly indicate its recorded Potency. Item: C[C@H]1CN(C2COC2)CCN1c1ccc(Nc2cc(-c3ccnc(N4CCn5c(cc6c5CC(C)(C)C6)C4=O)c3CO)cn(C)c2=O)nc1
[out] inactive

[in] Kindly indicate its recorded Potency. Item: CCCCN(CCCC)C(C(N)=O)c1ccc(OC)cc1 (stereo not drawn)
[out] inactive

[in] Kindly indicate its recorded Potency. Item: CC(C)=CCOc1ccc(/C=C/C(=O)c2ccc(OCC=C(C)C)cc2OCC(=O)O)cc1
[out] 9.2 µM (active)

[in] Kindly indicate its recorded Potency. Item: CCOC(=O)c1c(N)sc2c1CCN(Cc1ccccc1)C2
[out] inactive

[in] Kindly indicate its recorded Potency. Item: O=C(CCBr)N1CCN(C(=O)CCBr)CC1
[out] inactive

[in] Kindly indicate its recorded Potency. Item: Cc1cnc(Nc2ccc(F)cc2Cl)nc1-c1c[nH]c(C(=O)NC(CO)c2cccc(Cl)c2)c1 (stereo not drawn)
[out] 8.91 µM (active)
